Quick list: Percent catch of bed bugs in pitfall traps, Mean (%) ± SE per entry.
# System: bed bugs
# Method notes: Screening of chemical lures in four-choice pitfall trap bioassays
# Type: in vivo, Cimex lectularius L.
# Condition details: four-choice: three lures and an unbaited control per arena; 50 μl lure; plastic tray arena; 50 bugs; 8 hours
# Experimental: Bed bugs were collected from an infested house in Lakewood, N.J. They were maintained in plastic containers (4.7 cm height and 5 cm diameter) with folded paper as harborages at 26° C.±1° C., 40±10% relative humidity, a 12:12 hour (L:D) photoperiod, and were deprived of food for the entire duration of the study. […] Twelve known or potential bed bug chemical lures (Table 1) were evaluated for their attractiveness to bed bugs in plastic tray arenas.
Answer in ab %, number only, no unit symbol.

**Q:** Look up and report measured Percent catch of bed bugs in pitfall traps, Mean (%) ± SE (bed bugs) for the following compound: OCc1ccccc1 [Benzyl alcohol]
**A:** 25.1

// switching to the query compound
**Q:** Report measured Percent catch of bed bugs in pitfall traps, Mean (%) ± SE on bed bugs; entry: CC(=O)CCC=C(C)C [6-Methyl-5-Hepten-2-one]
**A:** 20.9
